melting point reference

Examples with their reported melting point follow.
[[record]]
molecule = "CC(=O)Nc1ccc(S(=O)(=O)NCCN2[C@H](C)Cc3ccsc3[C@@H]2C)cc1 (relative stereo)"
quantity_kind = "melting point"
reading = "142 to 144 °C"

[[record]]
molecule = "NS(=O)(=O)c1ccc(-n2nc(C(F)(F)F)cc2-c2ccc(-c3ccco3)cc2)cc1F"
quantity_kind = "melting point"
reading = "151 °C"

[[record]]
molecule = "COc1ccc(OC)c2cc3c(cc12)C1OC3C2=C1CCC(C(C)=O)C2 (stereo not given)"
quantity_kind = "melting point"
reading = "167 to 168 °C"

[[record]]
molecule = "O=C(NCC1(O)CCCCCC1)c1cc(-c2ncc(Cl)cc2C(=O)O)ccc1Cl"
quantity_kind = "melting point"
reading = "201 to 204 °C"


Query: melting point for "COc1cc2cnnc(N3CCC(CCN(C)C(=O)NC4CCCCC4)CC3)c2cc1OC" ?
Response: 204 to 206 °C
